src = ChEMBL document CHEMBL1132739

The following molecules each carry a recorded pIC50 for Tyrosine-protein kinase Lck (Homo sapiens, UniProt P06239).
Note on pIC50: it is the negative log10 of concentration, concentration in mol/L.

• CC(C)(C)n1cc(-c2ccc(Cl)cc2)c2c(N)ncnc21 = 6.66

**Query** Which pIC50 reading was recorded for the molecule Nc1ncnc2c1c(-c1ccccc1Oc1ccccc1)cn2C1CCCC1 ?
**Result** 6.41

====

- target-entity: Protein kinase C (PKC)
- experimental-details: Inhibition of PKC
- Assay type: protein assay
endpoint-label: IC50

* Nc1ncnc2c1c(-c1ccc(Oc3ccccc3)cc1)cn2C1CCC(O)C1 (configuration not stated) | > 33 µM

Okay, now this compound:
**Query** Quick check: IC50 on Protein kinase C (PKC), item Nc1ncnc2c1c(-c1ccc(Oc3ccccc3)cc1)cn2C1CCCC1 ?
**Result** > 33 µM

====

- target-entity: Tyrosine-protein kinase Lck (Homo sapiens, UniProt P06239)
- Sequence (P06239 whole entry): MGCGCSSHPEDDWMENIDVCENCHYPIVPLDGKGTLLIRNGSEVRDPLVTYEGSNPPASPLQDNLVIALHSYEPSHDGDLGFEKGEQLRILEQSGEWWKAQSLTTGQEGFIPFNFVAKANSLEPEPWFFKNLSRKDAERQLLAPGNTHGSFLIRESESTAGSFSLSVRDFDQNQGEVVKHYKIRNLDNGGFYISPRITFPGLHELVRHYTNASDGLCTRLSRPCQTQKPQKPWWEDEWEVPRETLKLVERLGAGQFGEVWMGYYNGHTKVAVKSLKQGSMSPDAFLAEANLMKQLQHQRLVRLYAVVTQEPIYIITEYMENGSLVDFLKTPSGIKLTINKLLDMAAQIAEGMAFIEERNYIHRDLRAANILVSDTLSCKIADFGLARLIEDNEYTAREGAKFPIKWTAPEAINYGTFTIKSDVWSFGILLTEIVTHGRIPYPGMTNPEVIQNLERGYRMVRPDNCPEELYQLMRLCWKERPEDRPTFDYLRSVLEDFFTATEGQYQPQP
endpoint-label: IC50 (nM)
Lab book: enter the figure in nM, no units written.

**Query** Need IC50 of Nc1ncnc2c1c(-c1ccc(Oc3ccccc3)cc1)cn2C1CCCC1 , thanks.
**Result** 2

====

- target-entity: Tyrosine-protein kinase Lck (Homo sapiens, UniProt P06239)
endpoint-label: pIC50
// scale note: pIC50 = -log10(conc_M); give the bare number

**Query** Provide the documented pIC50 with Tyrosine-protein kinase Lck (Homo sapiens, UniProt P06239) as the system for Nc1ncnc2c1c(-c1ccc(Oc3ccccc3)cc1)cn2C1CCCC1
**Result** 7.80

====

- target-entity: Tyrosine-protein kinase Lck (Homo sapiens, UniProt P06239)
endpoint-label: IC50 (nM)
Express the result in nM but write the number alone.

**Query** Please look up its IC50: Nc1ncnc2c1c(-c1ccc(Oc3ccccc3)cc1)cn2C1CCCC1
**Result** 1070

====

The following compounds are listed with their measured IC50 values.
- target-entity: UniProt P12931
- Sequence (P12931 2-536 limits assumed): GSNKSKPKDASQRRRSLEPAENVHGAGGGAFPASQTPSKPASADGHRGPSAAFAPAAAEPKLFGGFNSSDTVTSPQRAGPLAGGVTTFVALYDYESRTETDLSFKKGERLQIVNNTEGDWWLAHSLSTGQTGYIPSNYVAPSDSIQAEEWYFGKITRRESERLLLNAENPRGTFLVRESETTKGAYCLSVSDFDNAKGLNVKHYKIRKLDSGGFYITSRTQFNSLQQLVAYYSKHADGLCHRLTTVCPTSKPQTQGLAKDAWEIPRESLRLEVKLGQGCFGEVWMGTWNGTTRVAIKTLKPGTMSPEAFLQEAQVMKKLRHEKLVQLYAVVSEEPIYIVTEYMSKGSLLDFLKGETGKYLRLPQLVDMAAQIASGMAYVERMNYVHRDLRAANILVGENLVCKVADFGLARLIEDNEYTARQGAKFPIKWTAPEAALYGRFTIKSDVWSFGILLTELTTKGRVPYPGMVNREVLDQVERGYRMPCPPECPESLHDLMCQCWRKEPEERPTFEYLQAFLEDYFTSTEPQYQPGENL

- Nc1ncnc2c1c(-c1cccc(Oc3ccccc3)c1)cn2C1CCCC1: > 1000 nM

**Query** Quick check: IC50 on UniProt P12931, item Nc1ncnc2c1c(-c1ccc(Oc3ccccc3)cc1)cn2C1CCC(O)C1 (configuration not stated) ?
**Result** 88 nM

====

Collected pIC50 values appear next to each entry.
- target-entity: Cyclin-dependent kinase 1/cyclin B (Homo sapiens)
- experimental-details: Inhibition of CDC2/CyB
pIC50: −log10 of the molar value.

* Nc1ncnc2c1c(-c1ccc(Oc3ccccc3)cc1)cn2C1CCC(O)C1 (configuration not stated) | < 4.30

// switching to the query molecule
**Query** Missing value: pIC50, Cyclin-dependent kinase 1/cyclin B (Homo sapiens), entry Nc1ncnc2c1c(-c1ccc(Oc3ccccc3)cc1)cn2C1CCCC1 . Fill in?
**Result** < 4.30
